Reported pEC50 values for the following compounds.
- Assay target: hmGluR4 (Homo sapiens, UniProt Q14833)
- Construct: host or cells: HEK293T
- Sequence (Q14833 33-912): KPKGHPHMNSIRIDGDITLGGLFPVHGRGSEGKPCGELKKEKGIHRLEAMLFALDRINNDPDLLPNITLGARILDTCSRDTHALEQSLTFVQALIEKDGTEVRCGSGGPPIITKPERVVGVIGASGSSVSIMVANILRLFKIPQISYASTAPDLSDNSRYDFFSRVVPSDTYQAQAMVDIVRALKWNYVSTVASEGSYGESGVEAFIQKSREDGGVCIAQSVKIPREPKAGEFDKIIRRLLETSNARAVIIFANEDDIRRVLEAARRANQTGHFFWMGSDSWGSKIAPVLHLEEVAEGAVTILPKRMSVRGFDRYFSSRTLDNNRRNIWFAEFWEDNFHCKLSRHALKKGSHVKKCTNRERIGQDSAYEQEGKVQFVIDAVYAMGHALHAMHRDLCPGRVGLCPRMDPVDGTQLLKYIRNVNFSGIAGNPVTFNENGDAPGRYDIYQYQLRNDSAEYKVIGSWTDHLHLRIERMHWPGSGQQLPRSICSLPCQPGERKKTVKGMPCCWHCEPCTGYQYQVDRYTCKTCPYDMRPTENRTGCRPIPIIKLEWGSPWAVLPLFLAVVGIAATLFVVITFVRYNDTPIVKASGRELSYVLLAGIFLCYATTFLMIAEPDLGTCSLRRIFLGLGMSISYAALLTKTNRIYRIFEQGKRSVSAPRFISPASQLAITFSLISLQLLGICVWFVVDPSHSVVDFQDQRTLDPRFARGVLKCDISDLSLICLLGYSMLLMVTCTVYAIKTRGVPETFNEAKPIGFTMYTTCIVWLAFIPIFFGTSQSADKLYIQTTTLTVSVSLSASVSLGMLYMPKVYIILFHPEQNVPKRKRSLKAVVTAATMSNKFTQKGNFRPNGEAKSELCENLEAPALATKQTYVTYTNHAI
- Assay procedure: HEK-293 mGluR4 cells cAMP assay with EC20 L-Glutamate (HTRF)
- Type: cell-based
- Test settings: positive allosteric activity at EC20 L-Glutamate, 10 μM Forskolin, HEK293T mGluR4 cells, cAMP HTRF; read-out: hrmGluR4/HEK293T-hmGluR4 (EC50)
pEC50: −log10 of the molar value.

COc1ccc(N2C(=O)c3ccc(OC)cc3NC23CCN(Cc2cccc(F)c2)CC3)cc1 [Compound 68] : 5.00 to 6.00
COc1ccc(N2C(=O)c3ccccc3NC23CCN(Cc2ccc(F)cc2)CC3)cc1 [Compound 114] : 5.00 to 6.00

Qu. // query pEC50 value for entry COCCOc1ccc(N2C(=O)c3ccc(F)cc3NC23CN(Cc2ccccc2Cl)C3)cc1 [Compound 124]
Ans. 5.00 to 6.00

Qu. // query pEC50 value for entry COc1ccc(N2C(=O)c3ccccc3NC23CCN(Cc2cccc(Cl)c2)CC3)cc1 [Compound 104]
Ans. 5.00 to 6.00

Qu. // query pEC50 value for entry COc1ccc(N2C(=O)c3ccccc3NC23CN(Cc2c(F)cccc2F)C3)cc1 [Compound 95]
Ans. 5.00 to 6.00

Qu. // query pEC50 value for entry COc1ccc(N2C(=O)c3ccccc3NC23CN(Cc2ccc(F)cc2)C3)cc1 [Compound 101]
Ans. 5.00 to 6.00

Qu. // query pEC50 value for entry COc1ccc(N2C(=O)c3ccccc3NC23CN(Cc2ccccc2Cl)C3)cc1 [Compound 50]
Ans. > 6.00

Qu. // query pEC50 value for entry O=C1c2ccc(Br)cc2NC2(CCN(Cc3ccncc3)CC2)N1c1ccc(OC(F)(F)F)cc1 [Compound 97]
Ans. 5.00 to 6.00

Qu. // query pEC50 value for entry COc1ccc(N2C(=O)c3ccccc3NC23CCN(Cc2cccc(OC(F)(F)F)c2)CC3)cc1 [Compound 55]
Ans. > 6.00

Qu. // query pEC50 value for entry CCOC(=O)c1ccc2c(c1)NC1(CN(C(C)c3ccccc3Cl)C1)N(c1ccc(OC(F)(F)F)cc1)C2=O (stereo not shown) [Compound 30]
Ans. > 6.00

Qu. // query pEC50 value for entry COc1ccc(N2C(=O)c3ccc(N4CCCCC4)cc3NC23CCN(Cc2ccc(F)c(F)c2)CC3)cc1 [Compound 83]
Ans. 5.00 to 6.00

Qu. // query pEC50 value for entry O=C1c2ccc(F)cc2NC2(CN(Cc3ccccc3Cl)C2)N1c1ccc(OC(F)(F)F)cc1 [Compound 70]
Ans. 5.00 to 6.00

Qu. // query pEC50 value for entry O=C1c2ccc(N3CCOCC3)cc2NC2(CCN(Cc3ccc(F)c(F)c3)CC2)N1c1ccc(OC(F)(F)F)cc1 [Compound 21]
Ans. > 6.00

Qu. // query pEC50 value for entry CN(C)Cc1ccc(-c2ccc3c(c2)NC2(CCN(Cc4ccc(F)c(F)c4)CC2)N(c2ccc(OC(F)(F)F)cc2)C3=O)o1 [Compound 74]
Ans. 5.00 to 6.00

Qu. // query pEC50 value for entry CCOC(=O)c1ccc2c(c1)NC1(CCN(Cc3ccc(F)c(F)c3)CC1)N(c1ccc(OC(F)(F)F)cc1)C2=O [Compound 29]
Ans. > 6.00

Qu. // query pEC50 value for entry COc1cccc(N2C(=O)c3ccccc3NC23CCN(Cc2cc(Cl)ccc2Cl)CC3)c1 [Compound 115]
Ans. 5.00 to 6.00
